meta.source: ChEMBL document CHEMBL4007411

Field: pIC50. Provide a value for each of the compounds that follow.
target: Dihydrofolate reductase (Homo sapiens); assay: Inhibition of recombinant human DHFR assessed as reduction in conversion of DHF to THF measured every 30 secs for 6 mins by UV-Vis spectrophotometric method
Sequence (P00374 whole entry): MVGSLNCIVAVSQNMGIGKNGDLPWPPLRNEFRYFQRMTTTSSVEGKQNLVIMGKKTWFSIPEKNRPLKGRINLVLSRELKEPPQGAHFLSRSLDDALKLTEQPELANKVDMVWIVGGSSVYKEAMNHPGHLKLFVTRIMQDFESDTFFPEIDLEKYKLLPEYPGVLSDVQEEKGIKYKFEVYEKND
Entry type: numeric. Quantity: pIC50, the -log10 of concentration in molar units.

Ask: Provide only the value of recorded pIC50 for CC1(C)N=C(N)N=C(N)N1OCCCOc1ccc(C(=O)/C=C/c2ccccc2)cc1
Result: 8.04

Ask: Provide only the value of recorded pIC50 for NC1=NC2(CCCC2)N(OCCCOc2ccccc2)C(N)=N1
Result: 7.70

Ask: Provide only the value of recorded pIC50 for CC1(C)N=C(N)N=C(N)N1OCCCOc1cccc(C(=O)CCc2ccccc2)c1
Result: 8.41

Ask: Provide only the value of recorded pIC50 for CC1(C)N=C(N)N=C(N)N1OCCOc1cccc(C(=O)/C=C/c2ccccc2)c1
Result: 7.45

Ask: Provide only the value of recorded pIC50 for CC1(C)N=C(N)N=C(N)N1OCCOc1cccc(/C=C/C(=O)c2ccccc2)c1
Result: 7.23

Ask: Provide only the value of recorded pIC50 for Cl.NC1=NC2(CCCC2)N(OCCCOc2cccc(C(=O)/C=C/c3ccccc3)c2)C(N)=N1
Result: 8.21

Ask: Provide only the value of recorded pIC50 for CC1(C)N=C(N)N=C(N)N1OCCCCOc1cccc(/C=C/C(=O)c2ccccc2)c1
Result: 8.32

Ask: Provide only the value of recorded pIC50 for CC1(C)N=C(N)N=C(N)N1OCCOc1ccc(C(=O)/C=C/c2ccccc2)cc1
Result: 7.85

Ask: Provide only the value of recorded pIC50 for CC1(C)N=C(N)N=C(N)N1OCCCOc1ccccc1
Result: 8.28

Ask: Provide only the value of recorded pIC50 for CC1(C)N=C(N)N=C(N)N1OCCOc1ccc(/C=C/C(=O)c2ccccc2)cc1
Result: 7.27

----------
Field: LC50 (concentration killing 50% of cells present at T0). Provide a value for each of the compounds that follow.
test system: MCF7; assay: Antiproliferative activity against human MCF7 cells after 72 hrs by MTT assay; assay type: functional; conditions: MCF7, 72 h

Ask: Provide only the value of recorded LC50 (concentration killing 50% of cells present at T0) for CC1(C)N=C(N)N=C(N)N1OCCCOc1cccc(/C=C/C(=O)c2ccccc2)c1
Result: 29.8 µM

Ask: Provide only the value of recorded LC50 (concentration killing 50% of cells present at T0) for CC1(C)N=C(N)N=C(N)N1OCCCCOc1ccc(C(=O)/C=C/c2ccccc2)cc1
Result: 14.2 µM

Ask: Provide only the value of recorded LC50 (concentration killing 50% of cells present at T0) for CC1(C)N=C(N)N=C(N)N1OCCOc1ccc(/C=C/C(=O)c2ccccc2)cc1
Result: 47.7 µM

Ask: Provide only the value of recorded LC50 (concentration killing 50% of cells present at T0) for Cl.NC1=NC2(CCCC2)N(OCCCCOc2cccc(C(=O)/C=C/c3ccccc3)c2)C(N)=N1
Result: 9.7 µM

Ask: Provide only the value of recorded LC50 (concentration killing 50% of cells present at T0) for CC1(C)N=C(N)N=C(N)N1OCCOc1cccc(C(=O)/C=C/c2ccccc2)c1
Result: 40.7 µM

Ask: Provide only the value of recorded LC50 (concentration killing 50% of cells present at T0) for CC1(C)N=C(N)N=C(N)N1OCCOc1ccc(C(=O)/C=C/c2ccccc2)cc1
Result: 40.1 µM

Ask: Provide only the value of recorded LC50 (concentration killing 50% of cells present at T0) for CC1(C)N=C(N)N=C(N)N1OCCCOc1cccc(C(=O)/C=C/c2ccccc2)c1
Result: 20.2 µM

Ask: Provide only the value of recorded LC50 (concentration killing 50% of cells present at T0) for CC1(C)N=C(N)N=C(N)N1OCCCOc1cccc(C(=O)CCc2ccccc2)c1
Result: 25.9 µM

----------
biological target: Thioredoxin reductase 1, cytoplasmic (Rattus norvegicus); assay: Inhibition of […] thioredoxin reductase after 30 mins by DTNB reduction assay; settings: read-out: IC50
Sequence (O89049 whole entry): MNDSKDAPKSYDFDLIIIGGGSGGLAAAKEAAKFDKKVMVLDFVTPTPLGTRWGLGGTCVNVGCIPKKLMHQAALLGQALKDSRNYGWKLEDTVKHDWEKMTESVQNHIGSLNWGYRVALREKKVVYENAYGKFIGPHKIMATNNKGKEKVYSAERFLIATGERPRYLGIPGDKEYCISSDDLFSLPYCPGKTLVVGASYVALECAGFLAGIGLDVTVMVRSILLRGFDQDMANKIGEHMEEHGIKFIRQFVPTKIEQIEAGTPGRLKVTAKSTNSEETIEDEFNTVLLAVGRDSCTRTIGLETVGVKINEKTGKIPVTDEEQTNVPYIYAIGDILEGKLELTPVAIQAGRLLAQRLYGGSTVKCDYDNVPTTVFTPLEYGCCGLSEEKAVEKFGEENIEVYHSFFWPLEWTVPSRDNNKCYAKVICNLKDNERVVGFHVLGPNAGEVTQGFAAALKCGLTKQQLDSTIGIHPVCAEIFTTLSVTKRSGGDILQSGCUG
attribute-measured: pIC50
Entry type: numeric. Quantity: pIC50, the -log10 of concentration in molar units.

Ask: Provide only the value of recorded pIC50 for CC1(C)N=C(N)N=C(N)N1OCCCCOc1ccc(C(=O)/C=C/c2ccccc2)cc1
Result: 4.35

Ask: Provide only the value of recorded pIC50 for CC1(C)N=C(N)N=C(N)N1OCCCCOc1cccc(C(=O)/C=C/c2ccccc2)c1
Result: 4.95

Ask: Provide only the value of recorded pIC50 for NC1=NC2(CCCC2)N(OCCOc2cccc(C(=O)/C=C/c3ccccc3)c2)C(N)=N1
Result: 5.10

Ask: Provide only the value of recorded pIC50 for CC1(C)N=C(N)N=C(N)N1OCCCCOc1cccc(/C=C/C(=O)c2ccccc2)c1
Result: 5.22

Ask: Provide only the value of recorded pIC50 for CC1(C)N=C(N)N=C(N)N1OCCCOc1ccc(C(=O)/C=C/c2ccccc2)cc1
Result: 4.31

Ask: Provide only the value of recorded pIC50 for CC1(C)N=C(N)N=C(N)N1OCCCCOc1ccc(/C=C/C(=O)c2ccccc2)cc1
Result: 4.50

Ask: Provide only the value of recorded pIC50 for CC1(C)N=C(N)N=C(N)N1OCCOc1ccc(C(=O)/C=C/c2ccccc2)cc1
Result: 4.36

Ask: Provide only the value of recorded pIC50 for Cl.NC1=NC2(CCCC2)N(OCCCCOc2cccc(C(=O)/C=C/c3ccccc3)c2)C(N)=N1
Result: 5.04

Ask: Provide only the value of recorded pIC50 for CC1(C)N=C(N)N=C(N)N1OCCOc1ccc(/C=C/C(=O)c2ccccc2)cc1
Result: 4.53

Ask: Provide only the value of recorded pIC50 for CC1(C)N=C(N)N=C(N)N1OCCCOc1ccc(/C=C/C(=O)c2ccccc2)cc1
Result: 4.44

Ask: Provide only the value of recorded pIC50 for O=C(/C=C/c1ccccc1)c1ccccc1
Result: 4.33

Ask: Provide only the value of recorded pIC50 for Cl.NC1=NC2(CCCC2)N(OCCCOc2cccc(C(=O)/C=C/c3ccccc3)c2)C(N)=N1
Result: 5.12

Ask: Provide only the value of recorded pIC50 for CC1(C)N=C(N)N=C(N)N1OCCOc1cccc(C(=O)/C=C/c2ccccc2)c1
Result: 4.97

Ask: Provide only the value of recorded pIC50 for CC1(C)N=C(N)N=C(N)N1OCCCOc1cccc(/C=C/C(=O)c2ccccc2)c1
Result: 5.39

Ask: Provide only the value of recorded pIC50 for CC1(C)N=C(N)N=C(N)N1OCCOc1cccc(/C=C/C(=O)c2ccccc2)c1
Result: 5.24

Ask: Provide only the value of recorded pIC50 for CC1(C)N=C(N)N=C(N)N1OCCCOc1cccc(C(=O)/C=C/c2ccccc2)c1
Result: 4.97

----------
test system: HCT-116; experiment: Antiproliferative activity against human HCT116 cells after 72 hrs by MTT assay; format: functional; settings: HCT-116, 72 h
attribute-measured: log10 of GI50 (log10 of the value in nM)
The base-10 logarithm of GI50, taken with GI50 in nM, is what appears here.

Ask: Provide only the value of recorded log10 of GI50 for CC1(C)N=C(N)N=C(N)N1OCCCCOc1ccc(/C=C/C(=O)c2ccccc2)cc1
Result: 1.41

Ask: Provide only the value of recorded log10 of GI50 for CC1(C)N=C(N)N=C(N)N1OCCCOc1ccc(C(=O)/C=C/c2ccccc2)cc1
Result: 1.20

Ask: Provide only the value of recorded log10 of GI50 for CC1(C)N=C(N)N=C(N)N1OCCOc1cccc(/C=C/C(=O)c2ccccc2)c1
Result: 2.16

Ask: Provide only the value of recorded log10 of GI50 for CC1(C)N=C(N)N=C(N)N1OCCCOc1cccc(C(=O)CCc2ccccc2)c1
Result: 1.00

Ask: Provide only the value of recorded log10 of GI50 for CC1(C)N=C(N)N=C(N)N1OCCCCOc1ccc(C(=O)/C=C/c2ccccc2)cc1
Result: 1.59

Ask: Provide only the value of recorded log10 of GI50 for CC1(C)N=C(N)N=C(N)N1OCCOc1cccc(C(=O)/C=C/c2ccccc2)c1
Result: 2.23

Ask: Provide only the value of recorded log10 of GI50 for Cl.NC1=NC2(CCCC2)N(OCCCOc2cccc(C(=O)/C=C/c3ccccc3)c2)C(N)=N1
Result: 1.41

Ask: Provide only the value of recorded log10 of GI50 for CC1(C)N=C(N)N=C(N)N1OCCOc1ccc(/C=C/C(=O)c2ccccc2)cc1
Result: 2.85

Ask: Provide only the value of recorded log10 of GI50 for NC1=NC2(CCCC2)N(OCCOc2cccc(C(=O)/C=C/c3ccccc3)c2)C(N)=N1
Result: 2.41
